B1: FLOT1 (parent)
chain: QMAKKAEAFQLYQEAAQLDMLLEK

Variants of: B1
Assay: protein stability index of a GFP-peptide fusion (GPS, HEK-293T) (PSI 1-6); higher = more stable;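 note: lentivirally expressed fusions sorted by FACS into six bins by GFP to DsRed ratio, PSI derived from sequencing read proportions per bin multiplied by bin number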
Conditions: c terminus: a fixed tail appended
Readout type: protein stability index

>  <Mutation string>
K4A

>  <Observed result>
1.43

$$$$
>  <Mutation string>
A3H

>  <Observed result>
1.93

$$$$
>  <Mutation string>
E7I

>  <Observed result>
1.4

$$$$
>  <Mutation string>
E14K

>  <Observed result>
1.83

$$$$
>  <Mutation string>
M2P

>  <Observed result>
1.46

$$$$
>  <Mutation string>
A16E

>  <Observed result>
3.98

$$$$
>  <Mutation string>
E7L

>  <Observed result>
2.95

$$$$
>  <Mutation string>
L22A

>  <Observed result>
1.32

$$$$
>  <Mutation string>
Q1Y

>  <Observed result>
2.96

$$$$
>  <Mutation string>
D19V

>  <Observed result>
3.13

$$$$
>  <Mutation string>
K5C

>  <Observed result>
2.68

$$$$
>  <Mutation string>
L21T

>  <Observed result>
2.97

$$$$
>  <Mutation string>
E23Q

>  <Observed result>
1.75

$$$$
>  <Mutation string>
A15P

>  <Observed result>
4.27

$$$$
>  <Mutation string>
D19Y

>  <Observed result>
2.35

$$$$
>  <Mutation string>
Y12G

>  <Observed result>
4.56

$$$$
>  <Mutation string>
F9K

>  <Observed result>
2.63

$$$$
>  <Mutation string>
Y12D

>  <Observed result>
4.96

$$$$
>  <Mutation string>
L22T

>  <Observed result>
3.36

$$$$
>  <Mutation string>
E14W

>  <Observed result>
1.96

$$$$
>  <Mutation string>
A15H

>  <Observed result>
2.2

$$$$
>  <Mutation string>
M20L

>  <Observed result>
1.85

$$$$
